Would you kindly list Minimal inhibitory concentration MRSA^c for each of these molecules?
# Tested on: Methicillin-resistant S. aureus USA 300
# Format: cell-based, Staphylococcus aureus
# PARTICULARS: USA 300, 18 h
Non-standard residues stand in square brackets, D forms with d. Residues, ends and D or L forms follow the SMILES beside them. N(4-Br-benzyl)Gly = O=C(O)CNCc1ccc(Br)cc1; N(4-F-Bzl)Gly = O=C(O)CNCc1ccc(F)cc1; Nphe = O=C(O)CNCc1ccccc1; Nlys = NCCCCNCC(=O)O
Numbers only, in mg/L.

| MOLECULE | PROPERTY_MEASURED | UNIT_OF_MEASUREMENT | TEST_VALUE |
| --- | --- | --- | --- |
| NCCCCNCC(=O)N(CC(=O)N(CCCCN)CC(=O)N(CC(=O)N(CCCCN)CC(=O)N(CC(=O)N(CCCCN)CC(=O)N(CC(=O)N(CCCCN)CC(=O)N(CC(=O)N(CCCCN)CC(=O)N(CC(N)=O)Cc1ccc(F)cc1)Cc1ccc(F)cc1)Cc1ccc(F)cc1)Cc1ccc(F)cc1)Cc1ccc(F)cc1)Cc1ccc(F)cc1 [Compound 29] (H-[Nlys][N(4-F-Bzl)Gly][Nlys][N(4-F-Bzl)Gly][Nlys][N(4-F-Bzl)Gly][Nlys][N(4-F-Bzl)Gly][Nlys][N(4-F-Bzl)Gly][Nlys][N(4-F-Bzl)Gly]-NH2) | Minimal inhibitory concentration MRSA^c | mg/L | 16 |

Field: next molecule
Q: Name the recorded Minimal inhibitory concentration MRSA^c of the molecule listed here: NCCCCNCC(=O)N(CC(=O)N(CCCCN)CC(=O)N(CC(=O)N(CCCCN)CC(=O)N(CC(=O)N(CCCCN)CC(=O)N(CC(N)=O)Cc1ccc(Br)cc1)Cc1ccccc1)Cc1ccc(Br)cc1)Cc1ccccc1 [Compound 17] (H-[Nlys][Nphe][Nlys][N(4-Br-benzyl)Gly][Nlys][Nphe][Nlys][N(4-Br-benzyl)Gly]-NH2)
Result: 32

###

# Tested on: S. aureus ATCC 29213
# Format: cell-based, Staphylococcus aureus
# PARTICULARS: ATCC 29213, 18 h
Non-standard residues stand in square brackets, D forms with d. Residues, ends and D or L forms follow the SMILES beside them. N(4-F-Bzl)Gly = O=C(O)CNCc1ccc(F)cc1; NBzl(4-I)Gly = O=C(O)CNCc1ccc(I)cc1; Nphe = O=C(O)CNCc1ccccc1; Nlys = NCCCCNCC(=O)O
Would you kindly list Minimal inhibitory concentration SA^b for each of these compounds?
Give bare numbers, in µg/mL.

Record excerpt, results attached:
| COMPOUND | UNIT_OF_MEASUREMENT | Minimal inhibitory concentration SA^b |
| --- | --- | --- |
| NCCCCNCC(=O)N(CC(=O)N(CCCCN)CC(=O)N(CC(=O)N(CCCCN)CC(=O)N(CC(=O)N(CCCCN)CC(=O)N(CC(=O)N(CCCCN)CC(=O)N(CC(=O)N(CCCCN)CC(=O)N(CC(N)=O)Cc1ccc(F)cc1)Cc1ccc(F)cc1)Cc1ccc(F)cc1)Cc1ccc(F)cc1)Cc1ccc(F)cc1)Cc1ccc(F)cc1 [Compound 29] (H-[Nlys][N(4-F-Bzl)Gly][Nlys][N(4-F-Bzl)Gly][Nlys][N(4-F-Bzl)Gly][Nlys][N(4-F-Bzl)Gly][Nlys][N(4-F-Bzl)Gly][Nlys][N(4-F-Bzl)Gly]-NH2) | µg/mL | 32 |
| NCCCCNCC(=O)N(CC(=O)N(CCCCN)CC(=O)N(CC(=O)N(CCCCN)CC(=O)N(CC(=O)N(CCCCN)CC(=O)N(CC(=O)N(CCCCN)CC(=O)N(CC(=O)N(CCCCN)CC(=O)N(CC(N)=O)Cc1ccc(F)cc1)Cc1ccccc1)Cc1ccc(F)cc1)Cc1ccccc1)Cc1ccc(F)cc1)Cc1ccccc1 [Compound 33] (H-[Nlys][Nphe][Nlys][N(4-F-Bzl)Gly][Nlys][Nphe][Nlys][N(4-F-Bzl)Gly][Nlys][Nphe][Nlys][N(4-F-Bzl)Gly]-NH2) | µg/mL | 256 |
| NCCCCNCC(=O)N(CC(=O)N(CCCCN)CC(=O)N(CC(=O)N(CCCCN)CC(=O)N(CC(=O)N(CCCCN)CC(=O)N(CC(=O)N(CCCCN)CC(=O)N(CC(=O)N(CCCCN)CC(=O)N(CC(N)=O)Cc1ccc(I)cc1)Cc1ccc(I)cc1)Cc1ccc(I)cc1)Cc1ccc(I)cc1)Cc1ccc(I)cc1)Cc1ccc(I)cc1 [Compound 32] (H-[Nlys][NBzl(4-I)Gly][Nlys][NBzl(4-I)Gly][Nlys][NBzl(4-I)Gly][Nlys][NBzl(4-I)Gly][Nlys][NBzl(4-I)Gly][Nlys][NBzl(4-I)Gly]-NH2) | µg/mL | 128 |

Provide Minimal inhibitory concentration SA^b values for the following items, in order.
1. NCCCCNCC(=O)N(CC(=O)N(CCCCN)CC(=O)N(CC(=O)N(CCCCN)CC(=O)N(CC(N)=O)Cc1ccc(I)cc1)Cc1ccc(I)cc1)Cc1ccc(I)cc1 [Compound 5] (H-[Nlys][NBzl(4-I)Gly][Nlys][NBzl(4-I)Gly][Nlys][NBzl(4-I)Gly]-NH2)
2. NCCCCNCC(=O)N(CC(=O)N(CCCCN)CC(=O)N(CC(=O)N(CCCCN)CC(=O)N(CC(=O)N(CCCCN)CC(=O)N(CC(N)=O)Cc1ccc(I)cc1)Cc1ccc(I)cc1)Cc1ccc(I)cc1)Cc1ccc(I)cc1 [Compound 14] (H-[Nlys][NBzl(4-I)Gly][Nlys][NBzl(4-I)Gly][Nlys][NBzl(4-I)Gly][Nlys][NBzl(4-I)Gly]-NH2)

Result:
1. 4
2. 16
